Listed below: composite z-score values for each entry.
Assay: compounds binding Alexa647 anti-His antibody – biochemical, small-molecule microarray, 635 nm fluorescence, artefact control for SMM control protein annotation, primary screen (AID 1128);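 further: score merges feature fluorescence with signal-to-noise for each printed compound spot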
Details: higher = more signal
observed_property: composite z-score

• CCOC(=O)C1=C[C@@H](C(C)(C)C)N(S(=O)(=O)c2ccc(C)cc2)[C@H]1c1cccc2ccccc12 = 1.15
• [N-]=[N+]=Nc1ccccc1[C@@H]1OC(c2ccc(OCCCO)cc2)=N[C@]1(Cc1ccccc1)C(=O)O = 1.87
• COC(=O)[C@@]1(Cc2ccc(OC)cc2)[C@H]2c3cc(C(=O)N4CCCC4)n(CCc4c[nH]c5ccc(OC)cc45)c3C[C@H]2CN1C(=O)c1ccccc1 = 1.99
• C=C(COC)/C(=C/C[C@H](OC(=O)c1ccncc1)c1ccc(CO)o1)c1cnc2ccccc2c1 = 0.283
• O=C1C2C=CC(C(O)c3ccco3)N(Nc3ccccc3F)C2C(=O)N1c1ccccc1 (configuration not stated) = 0.0678
• CC(C)C(CO)N1C(=O)[C@@H]2[C@H]3C(=O)OCC=C[C@H]3OC23C=CCN(c2ccc(Cl)cc2)C(=O)[C@@H]13 (some centres not stated) = -1.82
• CCOC(=O)C[C@H]1[C@H](OC(=O)c2ccc(C(=O)c3ccccc3)cc2)[C@@H](NC(=O)c2ccc3ccccc3n2)c2cc(OCCCO)ccc2N1C(=O)Cc1ccc(OC)cc1 = -0.249
